These entries and their values trace back to PubChem BioAssay (NCI).

tested on: A498 renal; test: NCI-60 one-dose screen, 48 h; conditions: 10 µM unless noted
This is part of a sample that, as a whole, favours compounds with a hit. Of some 83,000 tested, about 20% had one in any assay. Active and inactive are the calls of the source. Rule for the calls: active = growth percent below 10; inactive = the rest.
Thanks in advance; please answer with one of these: Yes (active), No (inactive)

CC/C=C\C[C@H](O)C/C=C1/C(=O)C=C[C@@H]1C/C=C\CCCC(=O)N(C)C
No
O=C(c1ccncc1)N1N=C(c2ccc(Cl)cc2)C[C@H]1c1cn(-c2ccccc2)nc1-c1ccccc1
No

Please let me know the test result on file for `COc1ccc(Cc2cnc(NC(=O)c3cc(C)oc3C)s2)cc1` .
No

Please let me know the test result on file for `COc1ccc(C(=O)N2c3ccccc3Sc3ccccc32)c(OC)c1` .
Yes

###

test system: CAKI-1 renal; assay: NCI-60 one-dose screen, 48 h; conditions: 10 µM unless noted
This is part of a sample that, as a whole, favours compounds with a hit. Of some 83,000 tested, about 20% had one in any assay. Active and inactive are the calls of the source. How the source made its calls: active means growth percent below 10; inactive means the rest.
Thanks in advance; please answer with one of these: 1.0 (active), 0.0 (inactive)

# count of solved cases: 6
COc1ccc(CNc2c3ccccc3nc3ccccc23)cc1
0.0
O=C(NCCNc1nccc(Nc2ccc(S(=O)(=O)Nc3ccccn3)cc2)n1)c1cccc([N+](=O)[O-])c1
0.0
CCc1ncnc2c1ccn2C(C)c1ccc(OC)c(F)c1 (centres undefined)
0.0
Cc1ccc(-c2nc(N3CCCNCC3)c3oc(-c4ccccc4)nc3n2)cc1
1.0
O=[N+]([O-])c1cccc(-c2nc3cc4nc5ccccc5[nH]c4cc3n2)c1
0.0
NC(=O)c1cccc(-n2ccc3cc(NC(=O)c4ccc(N5CCOCC5)c(C(F)(F)F)c4)ccc32)n1
0.0

Please let me know the test result on file for COc1cc(C2c3cc(OC(C)=O)c(OC)cc3CC3C(=O)OCC32)ccc1OC(C)=O (centres undefined) .
0.0

Please let me know the test result on file for `N#CSc1c[nH]c2cccc(/C=C/C(=O)/C=C(/C=C/c3cccc4[nH]cc(SC#N)c34)OB(F)F)c12` .
1.0

Please let me know the test result on file for COc1cc2nc3cc([N+](=O)[O-])ccc3c(NCCNCC(C)O)c2cc1OC (centres undefined) .
0.0

###

tested on: MDA-MB-435 melanoma; test: NCI-60 one-dose screen, 48 h (100 = growth as untreated, 0 = no growth, -100 = all killed); settings: 10 µM unless noted
The panel holds about 83,000 compounds, 20% with a hit somewhere; the sample as a whole holds those more often. The source made the active and inactive calls. How the source made its calls: active means growth percent below 10; inactive means the rest.
Documented growth across a set of molecules

Cc1nc2sc(C(=O)Nc3ccc(Br)cc3)c(N)c2cc1C(O)c1ccccc1 (configuration not stated)
1.03% (active)
CCc1ccc(CCCC(=O)O)cc1
103% (inactive)
COc1ccc(OC)c(-c2nc(SCC(=O)c3ccc(C#N)cc3)[nH]c(=O)c2C#N)c1
100% (inactive)
CCC(C)(C)C(=O)O[C@H]1C[C@@H](C)C=C2C=C[C@H](C)[C@H](CC[C@@H]3CC(SCCN)CC(=O)O3)[C@H]21 (some centres not stated)
93.3% (inactive)
CCOC(=O)C1=C(c2ccccc2)N=C2SC=C(c3ccc(Cl)cc3)N2C1c1ccc(Cl)cc1 (configuration not stated)
93.2% (inactive)

Can you look up growth on MDA-MB-435 melanoma for `C[C@@H](CO)[C@@H]1CCC=C2CC[C@]3(C)[C@H](CC[C@@H]4[C@@]5(C)CCCNC(C)(C)[C@@H]5CC[C@]43C)[C@H]21` ?
7.57% (active)

Can you look up growth on MDA-MB-435 melanoma for `N#Cc1nc(-c2ccccc2)oc1S(=O)(=O)N1CCN(c2ccccc2)CC1` ?
86.3% (inactive)

Can you look up growth on MDA-MB-435 melanoma for `CCOC(=O)c1c(NC(=O)c2cccc(C(F)(F)F)c2)sc2c(CN(C)C)c(O)ccc12` ?
-22.6% (active)

###

tested on: SNB-19 CNS; assay: NCI-60 one-dose screen, 48 h (100 = growth as untreated, 0 = no growth, -100 = all killed); settings: 10 µM unless noted
About 83,000 compounds went through this panel and 20% of them were active in at least one assay; those are over-represented in the sample as a whole.
Documented growth across a set of compounds
Number in %, nothing else.

O=C(Nc1ccccc1)Nc1ncnc2c1ncn2-c1ccc(Cl)cc1
97.1

growth for `COc1ccc(/C=C(\C#N)n2nnc3ccc(Cl)cc32)cc1` ?
55.2

growth for `COc1ccc(CN2c3ccccc3Sc3ccccc32)cc1F` ?
34.6

growth for CCC(C)(C)C(=O)O[C@H]1C[C@@H](C)C=C2C=C[C@H](C)[C@H](CC[C@@H]3CC(SCCN)CC(=O)O3)[C@H]21 (some centres undefined) ?
93

###

test system: LOX IMVI melanoma; assay: NCI-60 one-dose screen, 48 h (100 = growth as untreated, 0 = no growth, -100 = all killed); settings: 10 µM unless noted
About 83,000 compounds went through this panel and 20% of them were active in at least one assay; those are over-represented in the sample as a whole.
Short version: growth at least 70% is MET, less is NOT MET.

# count of solved cases: 5
CCN(C)S(=O)(=O)Nc1cccc(Nc2ncnc3cc(NC(=O)CCl)ccc23)c1Cl
NOT MET
O=C(/C=C/c1cccc(Cl)c1)c1ccc(Nc2nc(Nc3ccc(F)cc3)nc(Nc3ccc(Cl)cc3)n2)cc1
MET
Nc1[nH]n2cc(-c3ccccc3)nc2c1N=Nc1ccc(S(N)(=O)=O)cc1
NOT MET
Cc1c2cnccc2c(C)c2c1c1cc(C#N)ccc1n2C
NOT MET
CCOc1ccccc1Cn1ccnc1CCc1c(Cl)c(O)cc(O)c1C(=O)OC
MET

Is growth at least 70%? Consider `CSc1oc(C)nc1[P+](c1ccccc1)(c1ccccc1)c1ccccc1`
NOT MET

Is growth at least 70%? Consider `COC(=O)[C@]1(C)CCC[C@]2(C)[C@H]3C[C@H]4C(C(C)C)=C[C@]3(CC[C@H]21)[C@@H]1C(=O)CC[C@H](OCCC#N)[C@@H]14`
MET

Is growth at least 70%? Consider `C=C1C(=O)O[C@H]2[C@H]1CC/C(COC(=O)/C=C\C(=O)NCc1ccc(Cn3c(=O)sn(CCI)c3=O)cc1)=C\CC[C@@]1(C)O[C@@H]21`
NOT MET

###

tested on: IGROV1 ovarian; assay: NCI-60 one-dose screen, 48 h (100 = growth as untreated, 0 = no growth, -100 = all killed); settings: 10 µM unless noted
The panel holds about 83,000 compounds, 20% with a hit somewhere; the sample as a whole holds those more often. Activity calls are given as the source filed them. Rule for the calls: active = growth percent below 10; inactive = the rest.
MEASURE_NAME: growth

O=C(CSc1oc(-c2ccccc2)nc1S(=O)(=O)c1ccccc1)Nc1ccc(F)cc1
88.9% (inactive)
COc1ccc(C2=C(Br)C(=O)c3nc(C)ccc3C2=O)cc1
87.5% (inactive)

Then this compound:
growth for `O=S(=O)(NCCNc1nccc(-c2c(-c3ccc(F)c(O)c3)nc3occn23)n1)c1ccc(Cl)cc1` ?
87.4% (inactive)

###

test system: HOP-62 NSCLC; experiment: NCI-60 one-dose screen, 48 h (100 = growth as untreated, 0 = no growth, -100 = all killed); details: 10 µM unless noted
The panel holds about 83,000 compounds, 20% with a hit somewhere; the sample as a whole holds those more often. The source made the active and inactive calls. Rule for the calls: active = growth percent below 10; inactive = the rest.
MEASURE_NAME: growth

Cc1cc(N2CCN(CCNc3ccnc4cc(Cl)ccc34)CC2)nc(N2CCOCC2)n1
81.4% (inactive)
CC/C(=C(/c1ccc(Cl)cc1)c1ccc(OCCN(C)C)cc1)c1ccc(Cl)cc1
78.5% (inactive)

Then this molecule:
growth for `C#CCOc1cccc(Nc2ncnc3ccc(NC(=O)C=C)cc23)c1` ?
58.4% (inactive)

###

system: EKVX NSCLC; assay: NCI-60 one-dose screen, 48 h; settings: 10 µM unless noted
This is part of a sample that, as a whole, favours compounds with a hit. Of some 83,000 tested, about 20% had one in any assay. Calls of active or inactive are those of the source. Rule for the calls: active = growth percent below 10; inactive = the rest.
Thanks in advance; please answer with one of these: active, inactive

# count of solved cases: 5
CN(c1cc2ncc(=O)[nH]c2cc1NC(N)=NCc1ccc(Cl)cc1)C1CCCCC1
inactive
Fc1cccc(Oc2ccc(Nc3ncnc4ccc(OCCCN5CCOCC5)cc34)cc2Cl)c1
inactive
OB1OCc2cc(/C=C/c3cccc(C(F)(F)F)c3)ccc21
inactive
COc1ccc(/C=C(\C#N)n2nnc3cc(F)c(F)cc32)cc1
inactive
COc1cc2oc(-c3cccc(NC(=O)c4ccccc4)c3)cc(=O)c2c(OC)c1OC
inactive

Please let me know the test result on file for `CC(C)(Sc1cc(C(C)(C)C)c(O)c(C(C)(C)C)c1)Sc1cc(C(C)(C)C)c(OC(=O)CCCC(=O)O)c(C(C)(C)C)c1` .
inactive

Please let me know the test result on file for COc1cc2nc3cc([N+](=O)[O-])ccc3c(NCCNCC(C)O)c2cc1OC (configuration not stated) .
active

Please let me know the test result on file for `O=C(NCCNc1nccc(Nc2ccc(S(=O)(=O)Nc3ccccn3)cc2)n1)c1cccc([N+](=O)[O-])c1` .
inactive

Please let me know the test result on file for CCC(C)(C)C(=O)O[C@H]1C[C@@H](C)C=C2C=C[C@H](C)[C@H](CC[C@@H]3CC(SCCN)CC(=O)O3)[C@H]21 (some centres not stated) .
inactive

Please let me know the test result on file for `Cc1c(O)cc(-c2cnc(Nc3ccccc3)s2)c(O)c1C` .
inactive
